assay-procedure: modulators of HCV replicon luciferase signal, primary screen, HCV replication inhibitor project, Huh7 cells, luciferase reporter (AID 1109);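 also: huh7 hepatoma cells harbouring a luciferase neomycin HCV replicon reporter; luciferase luminescence as measure of HCV replicon replication; test concentration not given here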
conditions-used: 48 h, higher = more signal
Entries annotated with measured z-score
Enter the number alone.

Previously resolved entries follow.
{"molecule": "COc1ccc([Si](C)(C)[C@@H]2[C@@H](CCO)O[C@]3(C(=O)N(Cc4ccccc4)c4ccc(N5C(=O)c6ccccc6Oc6ccccc65)cc43)[C@H]2C)cc1", "z-score": -4.15}
{"molecule": "COCCCNC(=O)[C@@]1(Sc2ccc(C)cc2)CC(=O)N(C2CCCCC2)[C@@H]1c1ccc(CO)cc1I", "z-score": -2.63}
{"molecule": "COc1ccc([Si](C)(C)[C@H]2[C@H](CCn3cc([C@H](O)c4ccccc4)nn3)O[C@@]3(C(=O)N(C)c4c(Br)cc(C)cc43)[C@@H]2C)cc1", "z-score": -4.19}
{"molecule": "CC[C@H](C)C(=O)O[C@H]1CC[C@]2(C)C3=C(CCC2C1(C)C)[C@]1(C)CC[C@H]([C@H](C)CCCC(C)C)[C@@]1(C)CC3 (some centres not stated)", "z-score": -0.492}
{"molecule": "CCCCN1CC=CC23O[C@@H]4/C=C\\CCC(C)OC(=O)C4[C@H]2C(=O)N(C(C)CO)[C@@H]3C1=O (some centres not stated)", "z-score": 0.263}

Challenge: Entry COc1cc(OC)c(C(O)C2C=CC3C(=O)N(c4ccccc4)C(=O)C3N2Nc2ccccc2F)cc1Br (configuration not stated) : reported z-score = ?
Response given: -1.17

Challenge: Quick check: z-score of CC(c1ccccc1)C(O)C1C=CC2C(=O)N(c3ccccc3)C(=O)C2N1Nc1ccc(C#N)cc1 (configuration not stated) ?
Response given: -0.354

----------
target-or-system: NADPH oxidase 4 (Homo sapiens)
assay-procedure: NOX4-dependent H2O2 signal modulators, primary screen, NOX inhibitor project, cell-based, HEK293-NOX4, tetracycline-induced, Amplex Red fluorescence (AID 1160)
conditions-used: 45 min, higher = more signal, called active from +8 up or from −8 down
Fulfilled means recorded z-score is -0.4 or above; Not fulfilled means it is below -0.4.

{"compound": "CC1CC/C=C\\[C@H]2OC34C=CCN(CCN5CCOCC5)C(=O)[C@H]3N(CCCCCCO)C(=O)[C@@H]4C2C(=O)O1 (some centres not stated)", "target-or-system": "NADPH oxidase 4 (Homo sapiens)", "class-assignment": "Fulfilled"}
{"compound": "C=CCC(OC(C)=O)[C@@H]1[C@@H](N(Cc2cc3ccccc3o2)C(=O)c2cccc3ccccc23)c2cc(OCCCO)ccc2N1C(=O)c1ccc2ccccc2c1 (some centres not stated)", "target-or-system": "NADPH oxidase 4 (Homo sapiens)", "class-assignment": "Not fulfilled"}
{"compound": "COCCCNC(=O)[C@@]1(Sc2ccc(C)cc2)CC(=O)N(C2CCCCC2)[C@@H]1c1ccc(CO)cc1I", "target-or-system": "NADPH oxidase 4 (Homo sapiens)", "class-assignment": "Fulfilled"}

Please find the next compound below.
Challenge: Could you tell me if the measured z-score of C=CCC(OC(C)=O)[C@@H]1[C@@H](N(Cc2cc3ccccc3o2)C(=O)Cc2ccc(OC)cc2)c2cc(OCCCO)ccc2N1C(=O)Cc1ccc2ccccc2c1 (some centres not stated) reaches -0.4 or more?
Response given: Not fulfilled

All figures here come from PubChem BioAssay.
